SYSTEM: Axl (Homo sapiens, UniProt P30530)
Construct: endogenous in cells; host or cells: HeLa
Sequence (P30530 26-894): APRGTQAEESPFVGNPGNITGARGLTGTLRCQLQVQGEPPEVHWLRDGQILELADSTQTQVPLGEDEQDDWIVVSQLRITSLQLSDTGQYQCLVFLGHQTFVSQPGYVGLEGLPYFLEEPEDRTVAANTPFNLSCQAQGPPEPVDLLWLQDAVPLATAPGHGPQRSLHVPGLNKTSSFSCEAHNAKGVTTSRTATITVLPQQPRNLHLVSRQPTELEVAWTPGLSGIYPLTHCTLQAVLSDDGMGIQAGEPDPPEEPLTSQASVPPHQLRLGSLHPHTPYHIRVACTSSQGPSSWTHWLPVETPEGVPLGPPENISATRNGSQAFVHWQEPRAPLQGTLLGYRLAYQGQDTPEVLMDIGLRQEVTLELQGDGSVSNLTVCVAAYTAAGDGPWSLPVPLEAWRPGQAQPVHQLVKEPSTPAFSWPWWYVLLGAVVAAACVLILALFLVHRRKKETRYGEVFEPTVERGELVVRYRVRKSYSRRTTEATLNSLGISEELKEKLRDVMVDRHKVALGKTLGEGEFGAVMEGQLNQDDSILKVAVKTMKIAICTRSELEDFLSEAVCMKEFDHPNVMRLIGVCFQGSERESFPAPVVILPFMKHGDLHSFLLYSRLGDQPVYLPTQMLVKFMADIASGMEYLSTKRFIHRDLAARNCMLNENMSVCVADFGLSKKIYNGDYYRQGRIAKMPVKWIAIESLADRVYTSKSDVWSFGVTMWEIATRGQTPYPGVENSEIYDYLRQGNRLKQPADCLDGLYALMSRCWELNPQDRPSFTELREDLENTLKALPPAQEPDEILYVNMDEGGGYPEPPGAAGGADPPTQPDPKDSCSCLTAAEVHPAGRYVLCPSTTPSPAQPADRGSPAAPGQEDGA
PROCEDURE_SUMMARY: Phospho-AKT in-cell Western assay (inhibition of Axl activity)
Format: cell-based
CONDITION_DETAILS: Table 1, formula (Ia); Hela cells, Axl antibody cross-linking stimulation, phospho-Akt chemiluminescence normalized to relative cell number
pIC50: −log10 of the molar value.
Each entry below lists one item and its recorded pIC50 value.

Please review the entries below; each comes with its answer.
Need pIC50 of CNC(=O)[C@H]1C[C@H]2C[C@H](C2(C)C)[C@@]1(C)Nc1nc(Nc2ccc(N3CCN(c4ccc(F)cc4)CC3)cc2)ncc1Cl [Compound 11] , thanks.
< 4.70

Query: pIC50; subject: CNC(=O)[C@H]1C[C@H]2C[C@H](C2(C)C)[C@@]1(C)Nc1nc(Nc2ccc(N3CCC(N4CCN(C)CC4)CC3)c(F)c2)ncc1Cl [Compound 31]
> 6.00

Which pIC50 value is on record for CNC(=O)[C@H]1C[C@H]2C[C@H](C2(C)C)[C@@]1(C)Nc1nc(Nc2ccc(N3CCC(N4CCC(C)CC4)CC3)c(F)c2)ncc1F [Compound 55] ?
> 6.00

Others:
Consider the compound CNC(=O)[C@H]1C[C@H]2C[C@H](C2(C)C)[C@@]1(C)Nc1nc(Nc2ccc(N3CCOCC3)cc2)ncc1Cl [Compound 2] and give its measured pIC50.
5.00 to 6.00

What does the data say about its pIC50? Entry: CNC(=O)[C@H]1C[C@H]2C[C@H](C2(C)C)[C@@]1(C)Nc1nc(Nc2ccc(N3CCN(S(C)(=O)=O)CC3)c(Cl)c2)ncc1F [Compound 36]
5.00 to 6.00

Looking for the measured pIC50 of CCN(CC)C1CCN(c2ccc(Nc3ncc(C(F)(F)F)c(N[C@@]4(C)[C@@H](C(=O)NC)C[C@H]5C[C@@H]4C5(C)C)n3)cc2F)CC1 [Compound 52] , can you help?
> 6.00

Cited source: patent US8563559B2
